# test protocol: Solubility of therapeutic agent suspension in buffer
# Type: physicochemical
# experimental context: aqueous buffer; in the buffer at 37C
measured attribute: solubility

Query: solubility; subject: CC1(C)O[C@@H]2C[C@H]3[C@@H]4CCC5=CC(=O)C=C[C@]5(C)[C@@]4(F)[C@@H](O)C[C@]3(C)[C@]2(C(=O)CO)O1 [triamcinolone acetonide]
~0.019 mg/mL
